A collection of molecules and their measured pIC50
Target: wt human TYK2, catalytic site (Homo sapiens)
Construct: wt human TYK2, catalytic site
Sequence (P29597 897-1176 limits assumed): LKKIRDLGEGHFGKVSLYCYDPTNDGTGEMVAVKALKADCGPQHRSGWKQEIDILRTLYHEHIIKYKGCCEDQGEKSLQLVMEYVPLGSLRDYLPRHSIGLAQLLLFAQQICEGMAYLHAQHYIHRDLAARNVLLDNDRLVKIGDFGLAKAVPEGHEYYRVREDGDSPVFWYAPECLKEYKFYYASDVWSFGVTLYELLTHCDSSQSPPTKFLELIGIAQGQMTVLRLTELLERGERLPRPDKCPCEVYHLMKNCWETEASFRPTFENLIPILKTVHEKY
Experiment: HTRF KinEASE assay, TYK2
Conditions: 1 μM ATP; read-out: IC50, Activity Toward TYK2
pIC50: −log10 of the molar value.

Check out these entries, answers already filled in.
* NC(=O)c1nn(-c2c(Cl)cccc2Cl)cc1Nc1ccc(-c2nncn2CC(F)F)cc1 | > 8.00
* CN1CCC(Oc2ccc(Nc3cn(-c4c(F)cccc4Cl)nc3C(N)=O)cc2)CC1 | 7.00 to 8.00
* CC(F)(F)c1nnnn1-c1ccc(Nc2cn(-c3c(Cl)cccc3Cl)nc2C(N)=O)cn1 | 6.00 to 7.00
* NC(=O)c1nn(-c2c(Cl)cccc2Cl)cc1Nc1ccc(CN2CCS(=O)(=O)CC2)nc1 | 7.00 to 8.00
* NC(=O)c1nn(-c2c(Cl)cccc2Cl)cc1Nc1ccc(C(=O)N2CC(O)C2)cn1 | 6.00 to 7.00

Exam item: What does the data say about its pIC50? Entry: `Cc1nc2cc(Nc3cn(-c4c(F)cccc4Cl)nc3C(N)=O)ccc2n1C`
Marked response: 7.00 to 8.00

Exam item: Which measured pIC50 value corresponds to `Cc1cnnn1-c1ccc(Nc2cn(-c3c(Cl)cccc3Cl)nc2C(N)=O)cc1` ?
Marked response: 7.00 to 8.00

Exam item: Given the molecule `CCS(=O)(=O)Nc1ccc(Nc2cn(-c3c(Cl)cccc3Cl)nc2C(N)=O)cc1` , what is its reported pIC50?
Marked response: 7.00 to 8.00
